- Test system: monoclonal antibody MV-004
- ASSAY REMARKS: In vitro binding assay (ELISA), BSA-coupled peptides, parental antibody MV-004
- Set-up: species or system BalbC mice
- CONDITIONS: Table 1B; peptide-BSA on plate, compared to original epitope
Listed here are substances together with their documented Binding Capacity.

Quick note, Binding Capacity for EVWHRLQC [p4419] landed at 3 (strong binding :>96000)

The values you see were collected from patent US20130287807A1.
